# System: PA-1
# MEASUREMENT_PROTOCOL: Primary qHTS to identify gynecologic anti-cancer compounds using libraries of approved drugs and bioactive compounds (AID 1345084); also: % is scaled to controls: 0 for no effect and ±100 for the full control effect; nearly all actives have a fitted effect of over 55% in size
# ASSAY_SETUP: Gynecologic cancer cell panel viability, ATPlite luminescence, 48 h; series mostly up to 57.5 µM
# From the text: National Center for Advancing Translational Sciences [NCATS] Assay Overview: Chemotherapeutic drug responses vary from cancer to cancer and from patient to patient. […] ATPlite is a luminescence based assay reliant on the conversion of a luciferase substrate to light in the presence of ATP. As a cytotoxic compound will suppress growth and decrease the number of cells, the concentration of ATP will decrease, and less light signal will be detected in the well. […]
Inconclusive results are not listed. Activity calls are given as the source filed them. Calls follow the shape of the dose curve; as a rule, active = well fitted cell-killing curve with a large enough effect; inconclusive = small, poorly fitted or top-dose-only effect, or effect the other way; inactive = flat fitted curve, though single readings scatter.

COMPOUND	activity change, negative = cytotoxicity
CC1(C)CC2C(C1)C1(C)CCC13OC3(CO)C2O (centres undefined)	inactive
COC1=CC(=O)C[C@@H](C)[C@]12Oc1cc(OC)cc(OC)c1C2=O	inactive
C=CC(C)(C)O[C@@H]1O[C@H](CO[C@@H]2OC[C@](O)(CO)[C@H]2O)[C@@H](O)[C@H](O)[C@H]1O	inactive
CC1OC(O[C@H]2[C@@H](O)C[C@@]3(C)C([C@H](O)C[C@]4(C)C3CC=C3C5CC(C)(C)CC[C@]5(C(=O)OC5OC(CO)C(O)C(O)C5OC5OCC(OC6OCC(OC7OCC(O)C(O)C7O)C(O)C6O)C(OC6OCC(O)(CO)C6O)C5O)CC[C@]34C)[C@]2(C)CO)C(O)C(O)C1O (some centres undefined)	2.16% [at 6.55 µM] (inactive)
